Target: nicotinic acetylcholine receptor alpha6/alpha3/beta2/beta3 (Rattus norvegicus, UniProt P04757+P12390+P12391+P43143)
Sequence (P04757 whole entry): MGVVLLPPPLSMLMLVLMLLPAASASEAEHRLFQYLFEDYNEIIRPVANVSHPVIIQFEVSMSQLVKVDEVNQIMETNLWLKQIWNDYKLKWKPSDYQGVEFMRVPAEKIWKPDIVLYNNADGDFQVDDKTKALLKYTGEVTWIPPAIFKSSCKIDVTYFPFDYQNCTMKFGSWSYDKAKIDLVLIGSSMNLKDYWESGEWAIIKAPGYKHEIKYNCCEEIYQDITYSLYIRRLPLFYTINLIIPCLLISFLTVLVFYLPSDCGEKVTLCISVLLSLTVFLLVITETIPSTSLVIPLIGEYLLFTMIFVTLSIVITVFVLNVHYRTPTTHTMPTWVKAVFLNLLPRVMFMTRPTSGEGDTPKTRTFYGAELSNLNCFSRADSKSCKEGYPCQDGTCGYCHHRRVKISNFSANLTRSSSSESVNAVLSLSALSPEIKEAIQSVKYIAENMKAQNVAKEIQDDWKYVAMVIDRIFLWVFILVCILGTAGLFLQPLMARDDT
Sequence (P12390 whole entry): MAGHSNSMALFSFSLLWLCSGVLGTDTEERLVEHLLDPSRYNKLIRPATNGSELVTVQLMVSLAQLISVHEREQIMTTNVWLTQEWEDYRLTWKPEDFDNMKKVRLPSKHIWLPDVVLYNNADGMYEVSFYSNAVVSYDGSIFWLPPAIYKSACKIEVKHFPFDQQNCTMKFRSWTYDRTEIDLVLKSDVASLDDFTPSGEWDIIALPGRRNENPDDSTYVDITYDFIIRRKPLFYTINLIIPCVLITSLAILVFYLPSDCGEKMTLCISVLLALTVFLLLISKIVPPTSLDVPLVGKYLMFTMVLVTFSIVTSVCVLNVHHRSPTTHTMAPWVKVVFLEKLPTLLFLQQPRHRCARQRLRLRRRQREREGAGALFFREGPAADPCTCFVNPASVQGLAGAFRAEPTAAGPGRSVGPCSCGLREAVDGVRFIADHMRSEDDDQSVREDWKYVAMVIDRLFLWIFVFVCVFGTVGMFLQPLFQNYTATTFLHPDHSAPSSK
Sequence (P12391 whole entry): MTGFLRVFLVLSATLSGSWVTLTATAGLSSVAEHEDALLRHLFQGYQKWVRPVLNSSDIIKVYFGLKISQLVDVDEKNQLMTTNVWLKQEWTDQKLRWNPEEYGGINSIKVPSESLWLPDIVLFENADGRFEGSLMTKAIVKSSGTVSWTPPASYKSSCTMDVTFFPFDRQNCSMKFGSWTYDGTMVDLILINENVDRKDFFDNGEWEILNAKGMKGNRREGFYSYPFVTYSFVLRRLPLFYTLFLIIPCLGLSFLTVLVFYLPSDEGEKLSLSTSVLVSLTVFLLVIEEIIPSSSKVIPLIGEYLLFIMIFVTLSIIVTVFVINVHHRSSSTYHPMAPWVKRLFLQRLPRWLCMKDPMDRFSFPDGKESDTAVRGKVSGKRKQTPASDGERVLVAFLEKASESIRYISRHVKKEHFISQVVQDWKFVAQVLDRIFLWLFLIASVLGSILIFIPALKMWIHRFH
Sequence (P43143 whole entry): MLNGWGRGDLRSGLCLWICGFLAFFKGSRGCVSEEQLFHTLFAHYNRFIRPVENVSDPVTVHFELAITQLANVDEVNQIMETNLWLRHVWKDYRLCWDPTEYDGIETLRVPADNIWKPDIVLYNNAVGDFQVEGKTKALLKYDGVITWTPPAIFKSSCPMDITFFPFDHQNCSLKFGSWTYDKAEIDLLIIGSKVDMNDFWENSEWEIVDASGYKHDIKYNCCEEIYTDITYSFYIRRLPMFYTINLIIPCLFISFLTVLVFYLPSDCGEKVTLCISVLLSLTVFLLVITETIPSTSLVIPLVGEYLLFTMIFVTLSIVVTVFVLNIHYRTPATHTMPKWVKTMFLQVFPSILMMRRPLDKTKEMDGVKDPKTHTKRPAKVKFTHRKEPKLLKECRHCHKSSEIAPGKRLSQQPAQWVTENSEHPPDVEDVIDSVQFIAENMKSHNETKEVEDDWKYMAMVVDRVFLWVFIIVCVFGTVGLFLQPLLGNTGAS
Assay: Antagonist activity at rat alpha6alpha3beta2beta3 nAChR expressed in Xenopus laevis oocytes assessed as Ach-induced current amplitude at 10 nM at -70 mV holding potential by two electrode voltage-clamp assay relative to control
Format: cell-based
Where a SMILES comes first, the peptide text is derived from it. Bridges are numbered along the chain shown (N, C = ends). [ ]: non-standard residue; d: D form. Nle(6-COOH) = N[C@@H](CCCCC(=O)O)C(=O)O; Nle = CCCC[C@H](N)C(=O)O

>  <compound>
CCCC[C@@H]1NC(=O)[C@H](Cc2cnc[nH]2)NC(=O)[C@@H]2CSSC[C@H](NC(=O)CN)C(=O)N[C@@H](CSSC[C@@H](C(N)=O)NC(=O)[C@H]([C@@H](C)CC)NC(=O)[C@H](CCC(=O)O)NC(=O)[C@@H]3CCCN3C(=O)[C@H](Cc3cnc[nH]3)NC(=O)[C@H](CCCCC(=O)O)NC1=O)C(=O)N[C@@H](CO)C(=O)N[C@@H](Cc1cnc[nH]1)C(=O)N1CCC[C@H]1C(=O)N[C@@H](C)C(=O)N2 (H-GCCSHPACH[Nle][Nle(6-COOH)]HPEIC-NH2; disulfide 2-8, 3-16)

>  <inhibition at 0.01 µM>
90%

$$$$

The reported measurements were obtained from ChEMBL document CHEMBL4364262.
